Target: RhlB;RNase E (694-790) (Escherichia coli;Escherichia coli, UniProt P0A8J8;P21513 1-421;694-790, |)
Sequence (P0A8J8 whole entry, chain 1 of 2): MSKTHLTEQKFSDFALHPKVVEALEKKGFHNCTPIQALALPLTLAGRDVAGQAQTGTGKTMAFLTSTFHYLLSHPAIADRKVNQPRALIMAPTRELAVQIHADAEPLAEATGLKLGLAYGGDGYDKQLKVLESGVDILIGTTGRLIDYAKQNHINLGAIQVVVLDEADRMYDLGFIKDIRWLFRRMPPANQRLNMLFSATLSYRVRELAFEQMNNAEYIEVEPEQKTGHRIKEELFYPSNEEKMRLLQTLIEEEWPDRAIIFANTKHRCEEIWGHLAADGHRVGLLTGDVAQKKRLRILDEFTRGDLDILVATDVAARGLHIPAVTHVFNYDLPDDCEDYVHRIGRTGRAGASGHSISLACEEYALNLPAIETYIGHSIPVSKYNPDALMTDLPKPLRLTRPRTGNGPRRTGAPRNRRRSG
Sequence (P21513 694-790, chain 2 of 2): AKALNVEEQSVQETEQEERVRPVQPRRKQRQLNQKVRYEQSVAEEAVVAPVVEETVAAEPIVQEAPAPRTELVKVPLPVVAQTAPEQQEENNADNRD
Test: NMR (1H imino titration); no ATP; 4.5 mM Mg2+; NMR: 150 mM KCl, 25 mM Tris/HCl, 5 mM DTT, 4.5 mM MgCl2, pH 8.3, 288 K, 100 µM RNA; EMSA: 150 mM NaCl, 25 mM Tris, 1.5 mM MgCl2, 5 mM DTT, 10% glycerol, pH 8.3, 4 C, 1.5 µM RNA
Details: protein: recombinant;recombinant; tags: C-terminal TEV site (ENLYFQG) + 6xHis; His-tag removed by TEV, site remnant left;N-terminal 6xHis-TEV; purified analogously (tag cleaved); copies: 1;1; label: none; blunt
pKd: −log10 of the molar value.

>  <BINDER>
Blunt duplex 13 nt (dsRNA) RNA 1: UAGUAACUAAAAC RNA 2: GUUUUAGUUACUA

>  <pKd>
3.31

$$$$
